Histone deacetylase 1 (Homo sapiens) measurements of IC50, listed per entry.
Sequence (Q13547 whole entry): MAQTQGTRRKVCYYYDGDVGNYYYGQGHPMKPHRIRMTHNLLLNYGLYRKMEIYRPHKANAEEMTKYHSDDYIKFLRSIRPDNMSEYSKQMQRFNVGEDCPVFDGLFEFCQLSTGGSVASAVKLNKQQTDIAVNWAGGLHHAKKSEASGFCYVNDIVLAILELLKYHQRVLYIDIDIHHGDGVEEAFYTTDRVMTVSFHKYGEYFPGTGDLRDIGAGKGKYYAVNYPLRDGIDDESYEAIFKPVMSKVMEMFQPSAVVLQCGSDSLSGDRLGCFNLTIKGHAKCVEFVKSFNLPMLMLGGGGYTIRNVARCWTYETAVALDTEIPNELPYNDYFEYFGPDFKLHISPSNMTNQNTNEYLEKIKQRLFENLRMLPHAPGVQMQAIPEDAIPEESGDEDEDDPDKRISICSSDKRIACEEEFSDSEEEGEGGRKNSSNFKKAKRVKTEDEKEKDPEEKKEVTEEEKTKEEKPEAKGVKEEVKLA

[
  {
    "Molecule": "Nc1ccc(-c2cccs2)cc1NC(=O)c1ccc(CNC(=O)c2cc3ccccc3o2)cc1 [US9040727, V-10]",
    "IC50 / µM": 1.61
  },
  {
    "Molecule": "Nc1ccccc1NC(=O)c1ccc(CNC(=O)c2cc3ccccc3o2)cc1 [US9040727, V-8]",
    "IC50 / µM": 0.732
  }
]
